- TARGET OR SYSTEM: T1, human CD3 expressed on cells (Jurkat cells; human primary T cells) (human, UniProt P07766 23-207; P04234 22-171; P09693 23-182)
- T1 construct: whole, on cells
- T1 sequence (P07766 23-207, chain 1 of 3): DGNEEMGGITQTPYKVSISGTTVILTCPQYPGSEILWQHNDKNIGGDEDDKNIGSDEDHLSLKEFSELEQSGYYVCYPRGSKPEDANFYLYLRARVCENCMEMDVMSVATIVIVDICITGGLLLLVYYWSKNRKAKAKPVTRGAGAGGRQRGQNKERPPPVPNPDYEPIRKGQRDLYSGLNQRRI
- T1 sequence (P04234 22-171, chain 2 of 3): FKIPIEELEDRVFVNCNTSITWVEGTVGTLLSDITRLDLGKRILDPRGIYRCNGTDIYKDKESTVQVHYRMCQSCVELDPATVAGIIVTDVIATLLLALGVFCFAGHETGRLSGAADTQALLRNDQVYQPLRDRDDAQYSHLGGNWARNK
- T1 sequence (P09693 23-182, chain 3 of 3): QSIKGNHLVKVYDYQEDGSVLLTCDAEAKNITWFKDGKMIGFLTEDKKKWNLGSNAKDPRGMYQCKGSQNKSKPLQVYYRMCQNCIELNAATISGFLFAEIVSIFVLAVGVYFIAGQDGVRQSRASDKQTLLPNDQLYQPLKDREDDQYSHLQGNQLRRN
- RUN DESCRIPTION: flow cytometry, 25 nM, Jurkat cells
- Experimental: Purified antibodies were confirmed to bind CD3 expressed on cells using the CytoFLEX S or LX flow cytometers (Beckman Coulter). Antibodies were diluted to 25 nM in FACS buffer (PBS+2% FBS) and were incubated with CD3-expressing cells for 30 minutes at 4° C. […] The median fluorescence intensity of the binding signal for each antibody was normalized to the isotype control to obtain a fold over isotype value. An antibody with a fold over isotype (FOI) of ≥10 was considered to be positive for binding.
MEASURED METRIC: Binding (FOI)
Number only, in FOI; omit the unit.

What value of Binding (FOI) has been recorded for this entry: mAb 199 (antibody, V domains shown, VH/VL only) VH: QVQLVESGGGVVQPGRSLRLSCAASGFTFSGYGMHWVRQAPGKGLEWVAIIYYNGKKEYYADSVKGRFTIFRDNSKNTLYLHMNSLRAEDTAVYYCTRGEGYNWFDPWGQGTLVTVSS VL: EIVMTQSPATLSVSPGERATLSCRASQSVSRNLAWYQQKPGQAPRLLIYGASTRATGIPARFSGSGSGTEFTLTISSLQSEDFAVYYCQQYNNWPLTFGGGTKVEIK
172

Fill in: Binding (FOI) of mAb 209 (antibody, V domains shown, VH/VL only) VH: QVQLVESGGGVVQPGRSLRLSCAASGFTFSGYGMHWVRQAPGKGLEWVAIIYYNGKKEYYADSVKGRFTVSRDNSKNMLYLQMNSLRAEDTAVYYCTRGEGYNWFDPWGQGTLVTVSS VL: EIVMTQSPATLSVSPGERATLSCRASQTVSSNLAWYQQKPGQAPRLLIYGASTRATGIPARFSGSGSGTEFTLTISSLQSEDFAVYYCKQYNNRPLTFGGGTKVEIK is ___
186

Entry mAb 237 (antibody, V domains shown, VH/VL only) VH: EVQLLESGGDLVQPGGSLRLTCAASGFTFRSYAMNWVRQAPGKGLEWVSTISSRGDTTNYADSVKGRFTISRDTSKNTLYLQMDNLRADDTAVYYCSKMFSYYYYYMDVWGKGTTVTVSS VL: SYELTQPLSVSVALGQTARITCGGNNIGSKDVHWYQQKPGQAPVLVIYRDSNRPSGIPERFSGSNSGNTATLTISRAQAGDEADYYCQVWDSRTAVFGGGTQLTAL : reported Binding (FOI) = ?
217

Return reported Binding (FOI); argument: mAb 250 (antibody, V domains shown, VH/VL only) VH: QVQLVESGGGVVQPGRSLRLSCAASGFTFSTYGMHWVRQAPGKGLEWVAVLWSDGRSKYYADSVQGRFTISRDNSKNTLFLQMSSLRAEDTAVYYCAREPYYDFWSGYYTGYMDVWGKGTTVTVSS VL: DIQMTQSPSSLSASVGDRVTITCRASQGIRNDLGWYQQKPGKAPKRLIYAASSLQGGVPSRFSGSGSGTEFTLTISSLQPEDFATYYCLQHNSYPRTFGQGTKVEIK
125

Request the reported Binding (FOI) associated with mAb 261 (antibody, V domains shown, VH/VL only) VH: EVQLLESGGGFMQPGGSLRLSCAVSGFTFRTSSMAWVRQAPGKGLEWVSGIRGSGGRTYDAESVKGRFTISRDISKNTLYLQMNNLRAEDTAEYYCAKLYDYYNDFMDVWGKGTTVIVSA VL: SYELTQPLSVSVALGQTARITCGGNNIGSKNVHWYQQKPGQAPVLVIYRDSNRPSGIPERFSGSNSGNTATLTISRAQAGDEADYYCQVWDSSTAVFGGGTQLTAL
188

What value of Binding (FOI) has been reported for the following binder? mAb 220 (antibody, V domains shown, VH/VL only) VH: QEQLVESGGGVVQPGGSLRLSCVASGFTFSGYGMHWVRQAPGKGLEWVAIIWYNGRKTYYAESVKGRFTISRDNSKNTLSLQMNSLRVEDTAVYYCTTGKGYNWFDPWGQGTLVTVSS VL: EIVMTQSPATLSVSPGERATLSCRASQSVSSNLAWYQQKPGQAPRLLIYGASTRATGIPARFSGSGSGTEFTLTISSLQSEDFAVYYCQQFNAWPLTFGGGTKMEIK
181

Which Binding (FOI) reading was recorded for the binder mAb 230 (antibody, V domains shown, VH/VL only) VH: EVQLLESGGGLVQPGGSLRLSCAASGFTFSSYAMSWVRQAPGKGLEWVSSISGSGGSRYYADSVKGRFTISRDNSKNTLYLQMNSLRAEDTAVYYCAKDPVQDRYYFYYYYMDVWGKGTTVTVSS VL: EIVLTQSPDFQSVTPKEKVTITCRASQSIGSSLHWYQQKPDQSPKLLIKYASQSISGVPSRFSGSGSGTDFTLTINSLEAEDAAAYYCHQSSSLPHTFGQGTKLEIK ?
141

Which Binding (FOI) is listed for mAb 224 (antibody, V domains shown, VH/VL only) VH: QVQLVESGGGVVQPGRSLRLSCAASGFTFSGYGMHWVRQAPGKGLEWVAIIYYNGKKEYYADSVKGRFTISRDNSKNMLYLQMNGLRAEDTAIYYCTRGEGYNWFDPWGQGTLVTVSS VL: EIVMTQSPATLSVSPGERTTLSCRASQSVSNNLAWYQQKPGQAPRLLIYGASTRATGIPARFSGSGSGTEFTLTISSLQSEDFAVYYCQQYNNWPLTFGGGTKVEIK ?
181

Bench note: what Binding (FOI) did mAb 198 (antibody, V domains shown, VH/VL only) VH: QVQLVESGGGVVQPGGSLRLSCAASGFTFSGYGMHWVRQAPGKGLEWVAIIWYNGRKTYYAESVKGRFTISRDNSKNTLSLQMNSLRIEDTAVYYCTTGQGYNWFDPWGQGTLVTVSS VL: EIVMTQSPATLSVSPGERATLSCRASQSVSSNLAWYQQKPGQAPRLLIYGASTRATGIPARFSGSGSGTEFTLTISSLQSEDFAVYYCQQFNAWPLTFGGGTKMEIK show?
182
